Tested on: ryegrass, Italian (Italian ryegrass, Lolium multiflorum)
Test summary: Test A preemergence
Type: in vivo
Test conditions: 125 g ai/ha, preemergence; 0 to 100 scale (0 no effect, 100 complete control)

>  <Compound>
O=C(Nc1cccc(F)c1F)C1C(=O)N(c2ccccc2)CC1c1cccc(C(F)(F)F)c1 (stereo not shown) [Compound 457]

>  <Plant response rating, Ryegrass, Italian>
0

$$$$
>  <Compound>
Cc1ccc(C2CNC(=O)C2C(=O)Nc2ccc(F)c(F)c2F)cc1F (racemic) [Compound 371]

>  <Plant response rating, Ryegrass, Italian>
0

$$$$
>  <Compound>
Cc1c(F)ccc(NC(=O)C2C(=O)NCC2c2cccc(OC(F)(F)C(F)F)c2)c1F (stereo not shown) [Compound 460]

>  <Plant response rating, Ryegrass, Italian>
40

$$$$
>  <Compound>
O=C1NCC(c2cccc(OC(F)(F)C(F)F)c2)C1C(=O)Nc1ccccc1C(F)F (stereo not shown) [Compound 391]

>  <Plant response rating, Ryegrass, Italian>
20

$$$$
>  <Compound>
O=C1NCC(c2ccc(F)c(F)c2)C1C(=O)Nc1ccc(F)cc1Cl (stereo not shown) [Compound 411]

>  <Plant response rating, Ryegrass, Italian>
0

$$$$
>  <Compound>
Cc1ccc(C2CNC(=O)C2C(=O)Nc2ccccc2F)cc1F (racemic) [Compound 368]

>  <Plant response rating, Ryegrass, Italian>
0

$$$$
>  <Compound>
CN1CC(c2ccc3c(c2)OC(F)(F)O3)C(C(=O)Nc2ccccc2F)C1=O (stereo not shown) [Compound 441]

>  <Plant response rating, Ryegrass, Italian>
70

$$$$
>  <Compound>
COc1ccc(NC(=O)C2C(=O)NCC2c2ccc(F)c(F)c2)cc1F (stereo not shown) [Compound 415]

>  <Plant response rating, Ryegrass, Italian>
0

$$$$
>  <Compound>
Cc1ccc(C2CNC(=O)C2C(=O)Nc2cccc(F)c2F)cc1F (racemic) [Compound 369]

>  <Plant response rating, Ryegrass, Italian>
0

$$$$
>  <Compound>
COc1c(F)ccc(NC(=O)C2C(=O)NCC2c2ccc(F)c(F)c2)c1F (stereo not shown) [Compound 419]

>  <Plant response rating, Ryegrass, Italian>
0

$$$$
>  <Compound>
COc1c(F)ccc(NC(=O)C2C(=O)NCC2c2cccc(C(F)(F)F)c2)c1F (racemic) [Compound 386]

>  <Plant response rating, Ryegrass, Italian>
30

$$$$
>  <Compound>
O=C1NCC(c2ccc(Br)cc2)C1C(=O)Nc1ccc(F)cc1F (stereo not shown) [Compound 447]

>  <Plant response rating, Ryegrass, Italian>
20

$$$$
>  <Compound>
Cc1cc(C2CN(C)C(=O)C2C(=O)Nc2ccccc2S(C)(=O)=O)ccc1F (stereo not shown) [Compound 405]

>  <Plant response rating, Ryegrass, Italian>
0

$$$$
>  <Compound>
CN1CC(c2ccc(C(F)(F)F)cc2)C(C(=S)Nc2ccccc2F)C1=O (stereo not shown) [Compound 450]

>  <Plant response rating, Ryegrass, Italian>
0

$$$$
>  <Compound>
COC(=O)c1ccccc1NC(=O)C1C(=O)NCC1c1ccc(F)c(F)c1 (stereo not shown) [Compound 417]

>  <Plant response rating, Ryegrass, Italian>
0

$$$$
>  <Compound>
Cc1cc(NC(=O)C2C(=O)NCC2c2cccc(OC(F)F)c2)ccc1F (stereo not shown) [Compound 424]

>  <Plant response rating, Ryegrass, Italian>
0

$$$$

---

Test system: blackgrass (Alopecurus myosuroides)
Test summary: Test A postemergence
Format: in vivo
Test conditions: 500 g ai/ha, postemergence; 0 to 100 scale, 0 no effect, 100 complete control
Quantity: Plant response rating, Blackgrass

>  <Compound>
CN1CC(c2ccc(C(F)(F)F)cc2)C(C(=S)Nc2ccccc2F)C1=O (centres unmarked)

>  <Value observed>
40

$$$$
>  <Compound>
Cc1ccc(F)c(NC(=O)C2C(=O)NCC2c2cccc(OC(F)F)c2)c1 (centres unmarked)

>  <Value observed>
0

$$$$
>  <Compound>
CN1CC(c2ccc(C(F)(F)F)cc2F)C(C(=O)Nc2ccccc2S(C)(=O)=O)C1=O (centres unmarked)

>  <Value observed>
60

$$$$
>  <Compound>
CN1CC(c2cccc(C(F)(F)F)c2)C(C)(C(=O)Nc2ccccc2F)C1=O (centres unmarked)

>  <Value observed>
70

$$$$
>  <Compound>
COc1cccc(C2CNC(=O)C2C(=O)Nc2cccc(F)c2F)c1 (racemic)

>  <Value observed>
0

$$$$
>  <Compound>
Cc1ccc(C2CNC(=O)C2C(=O)Nc2ccc(F)c(F)c2F)cc1F (racemic)

>  <Value observed>
60

$$$$
>  <Compound>
CC(C)Oc1cccc(C2CNC(=O)C2C(=O)Nc2ccc(F)cc2F)c1 (racemic)

>  <Value observed>
70

$$$$
>  <Compound>
O=C(Nc1cccc(F)c1F)C1C(=O)N(c2ccccc2)CC1c1cccc(C(F)(F)F)c1 (centres unmarked)

>  <Value observed>
0

$$$$

---

Test system: barnyardgrass (Echinochloa crus-galli)
Test summary: Test B flooded paddy test
Format: in vivo
Test conditions: Echinochloa crus-galli, 250 g ai/ha, Flood; 0 to 100 scale where 0 is no effect and 100 is complete control; read-out: Barnyardgrass plant response rating
Kindly return met if reported pest or weed control at 250 g/ha is no lower than 60%; return not met if it is lower.

>  <Molecule>
COc1cc([C@H]2CN(C)C(=O)[C@@H]2C(=O)Nc2cccc(F)c2F)ccc1F [Compound 1299]

>  <Class assignment>
met

$$$$
>  <Molecule>
O=C1NC[C@H](c2cc(C(F)F)cs2)[C@H]1C(=O)Nc1ccccc1F [Compound 1116]

>  <Class assignment>
not met

$$$$
>  <Molecule>
CS(=O)(=O)c1ccccc1NC(=O)[C@H]1C(=O)NC[C@@H]1c1ccc2c(c1)CCO2 [Compound 1320]

>  <Class assignment>
not met

$$$$
>  <Molecule>
C=C(C)c1ccc([C@H]2CN(C)C(=O)[C@@H]2C(=O)Nc2cccc(F)c2C)cc1 [Compound 1150]

>  <Class assignment>
not met

$$$$
>  <Molecule>
Cc1c(F)cccc1NC(=O)[C@H]1C(=O)N(C)C[C@@H]1c1ccc(F)c(Br)c1 [Compound 1211]

>  <Class assignment>
met

$$$$
>  <Molecule>
O=C(Nc1cccc(F)c1F)[C@H]1C(=O)N(C2CC2)CC[C@@H]1c1ccc(F)cc1 [Compound 1003]

>  <Class assignment>
not met

$$$$
>  <Molecule>
CN1C[C@H](c2cccc(C#N)c2)[C@@H](C(=O)Nc2cccc(F)c2F)C1=O [Compound 1286]

>  <Class assignment>
met

$$$$
>  <Molecule>
CN1C[C@H](c2ccc(C(F)(F)F)nc2)[C@@](C)(C(=O)Nc2ccc(F)c(F)c2F)C1=O [Compound 1110]

>  <Class assignment>
met

$$$$

---

System: ryegrass, Italian (Italian ryegrass, Lolium multiflorum)
Test summary: Test A postemergence
Format: in vivo
Test conditions: Lolium multiflorum, post-emergence, 240 h, Postemergence, 31 g ai/ha; 0 is no effect, 100 is complete control; read-out: Ryegrass, Italian plant response rating (0 to 100 scale)
Property: pest or weed control at 31 g/ha; scope: individual compounds
Quantity: pest or weed control at 31 g/ha (%)

>  <Compound>
COc1ccc([C@H]2CN(C)C(=O)[C@@H]2C(=O)Nc2ccccc2F)cc1

>  <Assayed system>
ryegrass, Italian (Italian ryegrass, Lolium multiflorum)

>  <Quantity>
pest or weed control at 31 g/ha

>  <Value observed>
0

$$$$
>  <Compound>
O=C(Nc1ccccc1F)C1C(=O)N(CC(F)F)CC1c1cccc(C(F)(F)F)c1 (stereo not drawn)

>  <Assayed system>
ryegrass, Italian (Italian ryegrass, Lolium multiflorum)

>  <Quantity>
pest or weed control at 31 g/ha

>  <Value observed>
0

$$$$
>  <Compound>
Cc1ccc([C@H]2CN(C)C(=O)[C@@H]2C(=O)Nc2c(F)c(F)c(F)c(F)c2F)cc1

>  <Assayed system>
ryegrass, Italian (Italian ryegrass, Lolium multiflorum)

>  <Quantity>
pest or weed control at 31 g/ha

>  <Value observed>
0

$$$$
>  <Compound>
CN1C[C@H](c2ccc3c(c2)OC(F)(F)O3)[C@@H](C(=O)Nc2cccnc2F)C1=O

>  <Assayed system>
ryegrass, Italian (Italian ryegrass, Lolium multiflorum)

>  <Quantity>
pest or weed control at 31 g/ha

>  <Value observed>
0

$$$$
>  <Compound>
CN1C[C@H](c2ccc3c(c2)OC(F)(F)O3)[C@@H](C(=O)Nc2ccccc2C(F)(F)F)C1=O

>  <Assayed system>
ryegrass, Italian (Italian ryegrass, Lolium multiflorum)

>  <Quantity>
pest or weed control at 31 g/ha

>  <Value observed>
0

$$$$
>  <Compound>
CN1C[C@H](c2cc(Cl)cc(Cl)c2)[C@@H](C(=O)Nc2cccc(F)c2F)C1=O

>  <Assayed system>
ryegrass, Italian (Italian ryegrass, Lolium multiflorum)

>  <Quantity>
pest or weed control at 31 g/ha

>  <Value observed>
0

$$$$
>  <Compound>
Cc1ccc([C@H]2CN(C)C(=O)[C@@H]2C(=O)Nc2cccnc2F)cc1

>  <Assayed system>
ryegrass, Italian (Italian ryegrass, Lolium multiflorum)

>  <Quantity>
pest or weed control at 31 g/ha

>  <Value observed>
0

$$$$
>  <Compound>
CN1C[C@H](c2ccc3c(c2)C(F)(F)C(F)(F)O3)[C@@H](C(=O)Nc2cccc(F)c2F)C1=O

>  <Assayed system>
ryegrass, Italian (Italian ryegrass, Lolium multiflorum)

>  <Quantity>
pest or weed control at 31 g/ha

>  <Value observed>
0

$$$$
>  <Compound>
N#Cc1ccc([C@H]2CNC(=O)[C@@H]2C(=O)Nc2ccccc2F)cc1F

>  <Assayed system>
ryegrass, Italian (Italian ryegrass, Lolium multiflorum)

>  <Quantity>
pest or weed control at 31 g/ha

>  <Value observed>
0

$$$$
